Source: patent US8642591B2

Tested on: Human Skeletal Cells (SKM)
Assay: Protective effect on cell death induced by maitotoxin on human skeletal cells (SKM), WST-1 readout
Type: cell-based
Details: Homo sapiens, 24 h, read-out: EC50 μM After incubation for 24 h with the toxin, single substance (proportion 1); cell mortality rate induced by the toxin 96%; maitotoxin 24 h
Counter-ions that a name gives are not always drawn.
readout.label: EC50
Reply with the number and its unit after it.

In: # get_value(readout='EC50', item= CC(C)C[C@H](NC(=N)c1ccc2c(c1)Nc1ccccc1S2)C(=O)N[C@H]1CCOC1O (stereo partly shown) [Example 7, hydrochloride] )
Out: 5.92 µM
